B1: FAM107A (parent)
chain: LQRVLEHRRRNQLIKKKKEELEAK

- Variants of: B1
- Test: protein stability index of a GFP-peptide fusion (GPS, HEK-293T) (PSI 1-6); higher = more stable;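 note: lentivirally expressed fusions sorted by FACS into six bins by GFP to DsRed ratio, PSI derived from sequencing read proportions per bin multiplied by bin number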
- Measurement Parameters: c terminus: a fixed tail appended
Could you label it y if measured protein stability index is 4 or higher, and n otherwise?

{"columns": ["Mutation Code", "Category Label"],
 "data": [
  ["K15E", "y"],
  ["R9Y", "n"],
  ["I14T", "n"],
  ["I14V", "y"],
  ["R3C", "n"],
  ["E19S", "n"],
  ["L21M", "n"],
  ["R3T", "n"]
]}

QUERY: protein stability index >= 4 for K17A ?
RESULT: n

QUERY: Next record, please: K18I
RESULT: n

QUERY: Next record, please: R10P
RESULT: y

QUERY: Next record, please: R3F
RESULT: n

QUERY: Next record, please: R10D
RESULT: y

QUERY: Next record, please: H7N
RESULT: n

QUERY: Next record, please: V4R
RESULT: y

QUERY: Next record, please: I14N
RESULT: n

QUERY: Next record, please: V4W
RESULT: n

QUERY: Next record, please: E19N
RESULT: n

QUERY: Next record, please: R10M
RESULT: n

QUERY: Next record, please: L21N
RESULT: y
